test system: RARa:RXR (NR concentration 270 nM, RXRa partner concentration 90 nM); test: PBM binding z-score (relative to random genomic background probes); higher = stronger binding; sequences stand for … in GC…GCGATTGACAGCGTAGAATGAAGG
PBM binding z-score by entry:

- biosequence: "GCTAGCAGGTCATTTGGGTCACTCAATGACGGGC"
  test_system: "RARa:RXR (NR concentration 270 nM, RXRa partner concentration 90 nM)"
  PBM binding z-score: 3.92
- biosequence: "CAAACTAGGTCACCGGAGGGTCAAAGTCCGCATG"
  test_system: "RARa:RXR (NR concentration 270 nM, RXRa partner concentration 90 nM)"
  PBM binding z-score: 6.42
- biosequence: "CCTACTGGACCACGAAAGGTCATTGATTCAGTGA"
  test_system: "RARa:RXR (NR concentration 270 nM, RXRa partner concentration 90 nM)"
  PBM binding z-score: 5.61
- biosequence: "CCAGACAGGTGAGAAGGCAACTCAGCCTCGATTA"
  test_system: "RARa:RXR (NR concentration 270 nM, RXRa partner concentration 90 nM)"
  PBM binding z-score: -0.209
- biosequence: "TAGCCTAGGTCATGCCGGCCAGTATAGTGTCGGC"
  test_system: "RARa:RXR (NR concentration 270 nM, RXRa partner concentration 90 nM)"
  PBM binding z-score: 1.77
- biosequence: "GGAACGAGGGAAAGTTGATAGCAGAGTTTGATGG"
  test_system: "RARa:RXR (NR concentration 270 nM, RXRa partner concentration 90 nM)"
  PBM binding z-score: -0.338
- biosequence: "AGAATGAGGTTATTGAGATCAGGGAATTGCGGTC"
  test_system: "RARa:RXR (NR concentration 270 nM, RXRa partner concentration 90 nM)"
  PBM binding z-score: 1.84
- biosequence: "CCTACTGGGCCTAAAAGGTCATTGATGCCGATAA"
  test_system: "RARa:RXR (NR concentration 270 nM, RXRa partner concentration 90 nM)"
  PBM binding z-score: 5.06
- biosequence: "TCTCGGAGGACACGCAGGTCAGAGCTTTCCAGAG"
  test_system: "RARa:RXR (NR concentration 270 nM, RXRa partner concentration 90 nM)"
  PBM binding z-score: 1.15
- biosequence: "TCTTGTAGATCAAAGGTTAAGCAAGCCGAAGCCT"
  test_system: "RARa:RXR (NR concentration 270 nM, RXRa partner concentration 90 nM)"
  PBM binding z-score: 3.34
- biosequence: "GATGCAGGGTCAGCTAGAGGCCAGAGTATGGAAA"
  test_system: "RARa:RXR (NR concentration 270 nM, RXRa partner concentration 90 nM)"
  PBM binding z-score: 4.56
- biosequence: "CTTTACGGGTCACTCCAGGTTATAGCATCGGAGT"
  test_system: "RARa:RXR (NR concentration 270 nM, RXRa partner concentration 90 nM)"
  PBM binding z-score: 3.97
- biosequence: "GCTATTAGTTAAAAGGGCAACCGAATGATTCTCG"
  test_system: "RARa:RXR (NR concentration 270 nM, RXRa partner concentration 90 nM)"
  PBM binding z-score: 0.874
- biosequence: "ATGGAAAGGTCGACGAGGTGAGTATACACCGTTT"
  test_system: "RARa:RXR (NR concentration 270 nM, RXRa partner concentration 90 nM)"
  PBM binding z-score: 3.54
- biosequence: "ATCGAAAGGTCGAGATGAGTATAGAGAAAGGGAA"
  test_system: "RARa:RXR (NR concentration 270 nM, RXRa partner concentration 90 nM)"
  PBM binding z-score: 2.52
- biosequence: "ACTCGGAGGACAAAGGTCGGAGCTACGCCAGTGA"
  test_system: "RARa:RXR (NR concentration 270 nM, RXRa partner concentration 90 nM)"
  PBM binding z-score: 1.84
- biosequence: "ATCTCCAGGTAACAAGTTCAGTGAAAGAGAGGAC"
  test_system: "RARa:RXR (NR concentration 270 nM, RXRa partner concentration 90 nM)"
  PBM binding z-score: 1.05
- biosequence: "CCTATTGGGCCAAGGTCATTGATCAGTCAAAGCA"
  test_system: "RARa:RXR (NR concentration 270 nM, RXRa partner concentration 90 nM)"
  PBM binding z-score: 3.94
- biosequence: "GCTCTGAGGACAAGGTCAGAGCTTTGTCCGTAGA"
  test_system: "RARa:RXR (NR concentration 270 nM, RXRa partner concentration 90 nM)"
  PBM binding z-score: 2.88
- biosequence: "CCTAACGGGTCACTGACAGGTTATAGCATTTGGA"
  test_system: "RARa:RXR (NR concentration 270 nM, RXRa partner concentration 90 nM)"
  PBM binding z-score: 4.05
- biosequence: "AGTCAAAGTTCAGTACGAGGTAACGTAAAGCACG"
  test_system: "RARa:RXR (NR concentration 270 nM, RXRa partner concentration 90 nM)"
  PBM binding z-score: 2.35
- biosequence: "TCGAGTAGGTTAGCAATGGGGCATTCAGCTTTCT"
  test_system: "RARa:RXR (NR concentration 270 nM, RXRa partner concentration 90 nM)"
  PBM binding z-score: -0.123
- biosequence: "ATCTCTAGGTAACCAAGTTCACTGAATGCCGAAC"
  test_system: "RARa:RXR (NR concentration 270 nM, RXRa partner concentration 90 nM)"
  PBM binding z-score: 1.64
- biosequence: "CCTAGCAGGCCAATCTTGGTCACTCAAGGCTTGA"
  test_system: "RARa:RXR (NR concentration 270 nM, RXRa partner concentration 90 nM)"
  PBM binding z-score: -0.332
- biosequence: "GGAACGAGGGCAAGTTGATAACAGAGTTTGATGG"
  test_system: "RARa:RXR (NR concentration 270 nM, RXRa partner concentration 90 nM)"
  PBM binding z-score: 0.565
- biosequence: "AGAATGAGGTTATACGCAGATCAGGGAAGAAAGT"
  test_system: "RARa:RXR (NR concentration 270 nM, RXRa partner concentration 90 nM)"
  PBM binding z-score: 1.59
- biosequence: "CCTAGCAGGCCGATCTGGGTCACTCAAGGCTTGA"
  test_system: "RARa:RXR (NR concentration 270 nM, RXRa partner concentration 90 nM)"
  PBM binding z-score: 1.27
- biosequence: "GCGACTGGGGCATCAACAGGTTACCATAACTTAA"
  test_system: "RARa:RXR (NR concentration 270 nM, RXRa partner concentration 90 nM)"
  PBM binding z-score: 0.551
- biosequence: "GCAGACAGGTGAAACGCAGTTAACTCAGGGTGGC"
  test_system: "RARa:RXR (NR concentration 270 nM, RXRa partner concentration 90 nM)"
  PBM binding z-score: 0.164
- biosequence: "AATACAGGGTCATCGTAGGCCAGAATACGCACAG"
  test_system: "RARa:RXR (NR concentration 270 nM, RXRa partner concentration 90 nM)"
  PBM binding z-score: 4.56
- biosequence: "GCGACTCGGGCAAAGCAGGTTACCATAAGGTTGG"
  test_system: "RARa:RXR (NR concentration 270 nM, RXRa partner concentration 90 nM)"
  PBM binding z-score: 0.418
- biosequence: "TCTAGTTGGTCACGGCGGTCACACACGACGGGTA"
  test_system: "RARa:RXR (NR concentration 270 nM, RXRa partner concentration 90 nM)"
  PBM binding z-score: 0.871
- biosequence: "CAAACTAGGTCAAAGGTCAAATTCGAGCCAACCA"
  test_system: "RARa:RXR (NR concentration 270 nM, RXRa partner concentration 90 nM)"
  PBM binding z-score: 8.86
- biosequence: "CCAGTCAGGTGAGAAGGTAACTCAGCCTCGATTA"
  test_system: "RARa:RXR (NR concentration 270 nM, RXRa partner concentration 90 nM)"
  PBM binding z-score: 0.355
- biosequence: "TAGCCTAGGTCATTCAGCGGCCAGTATAGAAAGC"
  test_system: "RARa:RXR (NR concentration 270 nM, RXRa partner concentration 90 nM)"
  PBM binding z-score: 3.02
- biosequence: "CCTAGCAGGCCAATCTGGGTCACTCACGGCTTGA"
  test_system: "RARa:RXR (NR concentration 270 nM, RXRa partner concentration 90 nM)"
  PBM binding z-score: 1.18
- biosequence: "TGAAAGAGGTTATAAGATCAGGGAACGTTGCAAA"
  test_system: "RARa:RXR (NR concentration 270 nM, RXRa partner concentration 90 nM)"
  PBM binding z-score: 1.59
- biosequence: "CCTACTGGGCCAAAGGTCATCGATTCCAATGCTC"
  test_system: "RARa:RXR (NR concentration 270 nM, RXRa partner concentration 90 nM)"
  PBM binding z-score: 6.16
- biosequence: "CCGACTGGGGCAAAGTTTACCATACTCAGTACGA"
  test_system: "RARa:RXR (NR concentration 270 nM, RXRa partner concentration 90 nM)"
  PBM binding z-score: 0.465
- biosequence: "CGGCCAAGGTCAATGCTAGGTCAGTGAAAGCATT"
  test_system: "RARa:RXR (NR concentration 270 nM, RXRa partner concentration 90 nM)"
  PBM binding z-score: 5.67
- biosequence: "ATATGTAGGTTAGCTGGGGTCGTTCAGACTAGGC"
  test_system: "RARa:RXR (NR concentration 270 nM, RXRa partner concentration 90 nM)"
  PBM binding z-score: 2.76
- biosequence: "TCTCGGAAGACACGAAAGGTCAGAGCTCGACATC"
  test_system: "RARa:RXR (NR concentration 270 nM, RXRa partner concentration 90 nM)"
  PBM binding z-score: 4.27
- biosequence: "AATACAGGGTCATCGTGGGCCAGAGTACGCACAG"
  test_system: "RARa:RXR (NR concentration 270 nM, RXRa partner concentration 90 nM)"
  PBM binding z-score: 4.92

Hey, just so you know, these numbers are from the supplement of paper PMC6555819.
